# System: Mycobacterium tuberculosis
# run-description: Cornell M. t heat shock assay; note: in the data most compounds retested in dose-response had high values
# Format: functional, organism-based
# Design: dose or concentration left out as unconfirmed
The whole screen tested about 69,000 compounds, of which about 950 (1.4%) showed an effect of 50% or more. The entries come from a sample that favours strong results as a whole.
Catalogue of Percent Effect readings, one per entry.

compound: Cc1ccc(C(N)c2cccc(S(C)(=O)=O)c2)c(C)c1.Cl (configuration not stated)
Percent Effect: 1.87%
//
compound: Cl.Cl.c1cncc(OC[C@@H]2CCC[C@@]23CNCCO3)c1
Percent Effect: -0.8406%
//
compound: CN(C)[C@@H]1CN(C(=O)Cc2ccsc2)[C@@H]2CCCO[C@H]12.O=C(O)C(F)(F)F
Percent Effect: 1.941%
//
compound: Cn1ccc(C(=O)N2CCCC(c3cc(O)n(C)n3)C2)n1 (configuration not stated)
Percent Effect: -7.619%
//
compound: COCCN(CCc1ccccc1)Cc1nc2c(cnn2C)c(=O)[nH]1
Percent Effect: 50.74%
//
compound: c1cnnc(N2CCCC2CNCc2nc(-c3ccco3)no2)c1 (configuration not stated)
Percent Effect: 13.72%
//
compound: Cc1nc(CNCC2CCCN2c2cccnn2)oc1C (configuration not stated)
Percent Effect: -4.447%
//
compound: CC(C)c1nn(C)c(N(C)C)c1CNC(C)c1ccc2c(c1)OCO2.Cl (configuration not stated)
Percent Effect: 11.17%
//
compound: CC(C)CCc1nc(CNCC2CCCN2c2cccnn2)cs1 (configuration not stated)
Percent Effect: 75.49%
//
compound: c1cnnc(N2CCCC2CNCc2nc3ccccc3o2)c1 (configuration not stated)
Percent Effect: 103.1%
//
compound: CN(CCCOc1ccccc1)Cc1nc2c(cnn2C)c(=O)[nH]1
Percent Effect: -3.727%
//
compound: CCC(C)NC(=O)Cn1c(Nc2cc(C)cc(C)c2)nc(C)cc1=O (configuration not stated)
Percent Effect: 104.5%
//
compound: CO[C@@H]1CCN(S(=O)(=O)c2cccnc2)[C@@H]2CN(CC3CC3)C[C@@H]21.O=C(O)C(F)(F)F.O=C(O)C(F)(F)F
Percent Effect: -1.199%
//
compound: CN(CCCc1ccccc1)Cc1nc2c(cnn2C)c(=O)[nH]1
Percent Effect: 59.96%
//
compound: Cn1nccc1-c1nnn2c1COCC(CNC1CCOCC1)C2.O=C(O)C(F)(F)F.O=C(O)C(F)(F)F (configuration not stated)
Percent Effect: 3.559%
//
compound: Cc1cc(=O)n(CC(=O)NC(C)C)c(Nc2ccc(F)c(C)c2)n1
Percent Effect: -7.671%
//
compound: COCCCN(CCOC)Cc1nc2c(cnn2C)c(=O)[nH]1
Percent Effect: 18.48%
//
compound: CCc1noc(CNCC2CCCN2c2cccnn2)n1 (configuration not stated)
Percent Effect: 11.99%
//
compound: Cc1csc(CN(C)C2CCN(c3sccc3C#N)C2=O)n1 (configuration not stated)
Percent Effect: -26.99%
//
compound: O=C(O)CC(O)(CC(=O)O)C(=O)O.O[C@@]1(c2ccccn2)CC[C@H]2CN(Cc3ccccn3)C[C@H]21
Percent Effect: 3.038%
//
compound: c1cnnc(N2CCCC2CNc2nc3ccccc3o2)c1 (configuration not stated)
Percent Effect: -7.44%
//
compound: O=S(=O)(NCCCN1CCCC1)c1cc(F)cc(F)c1
Percent Effect: -10.46%

Ref: ChEMBL document CHEMBL3988442
